Assay overview: Phase 1 part A: PK after single and multiple once-daily oral doses
Type: in vivo, human
Assay conditions: human, plasma, po, 10 mg, Day 30, 10 mg once daily, White; mean (CV%)
Reported property: AUC
Provide a numeric answer, followed by its unit.

Param item = Cn1c(=O)oc2ccc(-c3ccc(C[C@@H](C#N)NC(=O)[C@@H]4CNCCCO4)cc3)cc21 ; retrieve measured AUC. 1180 ng·h/mL

* * *

Assay overview: Phase 1 part A: PK after single and multiple once-daily oral doses
Format: in vivo, human
Assay conditions: human, plasma, oral, single dose, White participants, range over dose groups; read-out: Elimination t1/2
Reported property: half-life

Param item = Cn1c(=O)oc2ccc(-c3ccc(C[C@@H](C#N)NC(=O)[C@@H]4CNCCCO4)cc3)cc21 ; retrieve measured half-life. 21.5 to 24.5 h

* * *

Assay overview: Phase 1 part B: PK of single 40 mg oral dose, fasted vs fed (food effect)
Assay type: in vivo, human
Assay conditions: human, plasma, oral, 40 mg, fasted, Japanese; read-out: median Tmax
Reported property: Tmax (h)
// return numeric value only (unit: h, not printed)

Param item = Cn1c(=O)oc2ccc(-c3ccc(C[C@@H](C#N)NC(=O)[C@@H]4CNCCCO4)cc3)cc21 ; retrieve measured Tmax. 1.3

* * *

Assay overview: Phase 1 part A: PK after single and multiple once-daily oral doses
Assay type: in vivo, human
Assay conditions: human, plasma, po, 40 mg, Day 30, 40 mg once daily, White; mean (CV%)
Reported property: Cmax

Param item = Cn1c(=O)oc2ccc(-c3ccc(C[C@@H](C#N)NC(=O)[C@@H]4CNCCCO4)cc3)cc21 ; retrieve measured Cmax. 467 ng/mL

* * *

Assay overview: Phase 1 part A: PK after single and multiple once-daily oral doses
Assay type: in vivo, human
Assay conditions: human, plasma, po, 40 mg, Day 30, 40 mg once daily, White; mean (CV%)
Procedure: The study was conducted sequentially in 2 parts. […] Eligible participants were admitted to the clinical unit for single‐dose evaluation from days −2 to 2 and from days 29 to 31 for steady‐state PK and safety evaluation. […] All statistical analyses were performed using SAS version 9.3 or higher (SAS Institute Inc., Cary, North Carolina). […] PK concentrations below the limit of quantification (BLQ) at time 0 on days 1 and 30 were considered 0. […]
Reported property: AUC(0-inf) (ng·h/mL)
// return numeric value only (unit: ng·h/mL, not printed)

Param item = Cn1c(=O)oc2ccc(-c3ccc(C[C@@H](C#N)NC(=O)[C@@H]4CNCCCO4)cc3)cc21 ; retrieve measured AUC(0-inf). 12200

* * *

Assay overview: Phase 1 part A: PK after single and multiple once-daily oral doses
Assay type: in vivo, human
Assay conditions: human, plasma, po, 25 mg, Day 1, 25 mg, Japanese; mean (CV%)
Reported property: Cmax (ng/mL)
// return numeric value only (unit: ng/mL, not printed)

Param item = Cn1c(=O)oc2ccc(-c3ccc(C[C@@H](C#N)NC(=O)[C@@H]4CNCCCO4)cc3)cc21 ; retrieve measured Cmax. 209

* * *

Assay overview: Phase 1 part A: PK after single and multiple once-daily oral doses
Type: in vivo, human
Assay conditions: human, plasma, oral, 10 mg, Day 30, 10 mg once daily, White; mean (CV%); read-out: Cmin
Method: The study was conducted sequentially in 2 parts. […] Eligible participants were admitted to the clinical unit for single‐dose evaluation from days −2 to 2 and from days 29 to 31 for steady‐state PK and safety evaluation. […] All statistical analyses were performed using SAS version 9.3 or higher (SAS Institute Inc., Cary, North Carolina). […] PK concentrations below the limit of quantification (BLQ) at time 0 on days 1 and 30 were considered 0. […]
Reported property: concentration at 30 day (ng/mL)
// return numeric value only (unit: ng/mL, not printed)

Param item = Cn1c(=O)oc2ccc(-c3ccc(C[C@@H](C#N)NC(=O)[C@@H]4CNCCCO4)cc3)cc21 ; retrieve measured concentration at 30 day. 26.3
